This listing pairs compounds with measured GI50.
Test system: DU-145
Assay: NCI tumour cell line growth inhibition, 48 h
Active and inactive are the calls of the source. Rule as the data show it: active = GI50 up to about 1.1 µM and inactive = higher. Residues, ends and D or L forms follow the SMILES beside them. *: point of attachment. Ethyl(2-NMe3+) = C[N+](C)(C)CC*; Boc = CC(C)(C)OC(=O)*
Quantity kind: GI50

[
  {
    "Compound": "CC(C)[C@H](C)/C=C/[C@@H](C)C1CC[C@H]2[C@@]34C=C[C@]5(C[C@@H](O)CC[C@]5(C)[C@H]3CC[C@]12C)OO4 (some centres not stated)",
    "Assayed system": "DU-145",
    "Result": "23.1 µM (inactive)"
  },
  {
    "Compound": "O=C1Nc2ccc(Br)cc2/C1=N/c1ccc2c(c1)OCO2",
    "Assayed system": "DU-145",
    "Result": "34 µM (inactive)"
  },
  {
    "Compound": "O=S(=O)(c1ccccc1)C1CC(c2nc3ccccc3[nH]2)=NO1 (configuration not stated)",
    "Assayed system": "DU-145",
    "Result": "> 100 µM (inactive)"
  },
  {
    "Compound": "C=C1CC(O)C2C(=C)C(=O)OC2C2C(C)C(=O)CC12 (configuration not stated)",
    "Assayed system": "DU-145",
    "Result": "15.3 µM (inactive)"
  },
  {
    "Compound": "CC1=NN(c2ccccc2)C(=O)/C1=C1\\SC(c2ccccc2)(c2ccccc2)c2ccccc21",
    "Assayed system": "DU-145",
    "Result": "> 100 µM (inactive)"
  },
  {
    "Compound": "N#CSc1ccc(S(N)(=O)=O)cc1",
    "Assayed system": "DU-145",
    "Result": "> 100 µM (inactive)"
  },
  {
    "Compound": "c1ccc(-c2c[nH]c(SC(c3ccccc3)c3ccccc3)n2)cc1",
    "Assayed system": "DU-145",
    "Result": "23.4 µM (inactive)"
  },
  {
    "Compound": "Cc1cc(S(N)(=O)=O)c(SCc2nc(N)nc(N(C)C)n2)cc1Cl",
    "Assayed system": "DU-145",
    "Result": "> 10 µM (inactive)"
  },
  {
    "Compound": "CC(NC(=O)C(Cc1ccc(OCC[N+](C)(C)C)cc1)NC(=O)OC(C)(C)C)C(=O)NC(Cc1ccccc1)C(=O)NCC(N)=O (configuration not stated) (Boc-Y(Ethyl(2-NMe3+))AFG-NH2; configuration not given here)",
    "Assayed system": "DU-145",
    "Result": "36.1 µM (inactive)"
  },
  {
    "Compound": "O=C1C(O)=C(CC=C(Cl)Cl)C(=O)c2ccccc21",
    "Assayed system": "DU-145",
    "Result": "23.8 µM (inactive)"
  },
  {
    "Compound": "CC(=O)OCCCOCn1c(Cc2ccccc2)c(C)c(=O)[nH]c1=O",
    "Assayed system": "DU-145",
    "Result": "> 100 µM (inactive)"
  },
  {
    "Compound": "N#Cc1c(-c2ccccc2)[nH]c2ccccc2c1=O",
    "Assayed system": "DU-145",
    "Result": "> 100 µM (inactive)"
  },
  {
    "Compound": "O=C(c1ccccc1)c1sc2c(=O)c(C(=O)c3ccccc3)c(C(=O)c3ccccc3)sc2c(=O)c1C(=O)c1ccccc1",
    "Assayed system": "DU-145",
    "Result": "> 100 µM (inactive)"
  },
  {
    "Compound": "O/N=C\\c1c2c(cc3c1CCC3)CCC2",
    "Assayed system": "DU-145",
    "Result": "> 100 µM (inactive)"
  },
  {
    "Compound": "C/C(=C\\COP(=O)(O)OP(=O)(O)O)CC/C=C(\\C)CNc1ccccc1",
    "Assayed system": "DU-145",
    "Result": "> 50 µM (inactive)"
  },
  {
    "Compound": "O=C(O)c1ccc(SSc2ccc(C(=O)O)cn2)nc1",
    "Assayed system": "DU-145",
    "Result": "> 100 µM (inactive)"
  },
  {
    "Compound": "O/N=C1/CCCCC1NO (configuration not stated)",
    "Assayed system": "DU-145",
    "Result": "> 100 µM (inactive)"
  },
  {
    "Compound": "CCOC(=O)/C=C(/C(=O)OCC)n1ccc(N)nc1=O",
    "Assayed system": "DU-145",
    "Result": "> 100 µM (inactive)"
  },
  {
    "Compound": "CCN1c2ccccc2NC(=S)c2c(-c3ccccc3)n[nH]c21",
    "Assayed system": "DU-145",
    "Result": "39.9 µM (inactive)"
  },
  {
    "Compound": "O=c1oc2ccc3ccccc3c2cc1-c1nc2ccc([N+](=O)[O-])cc2o1",
    "Assayed system": "DU-145",
    "Result": "> 58.6 µM (inactive)"
  },
  {
    "Compound": "CCOC(=O)/C(C#N)=C(/NS(=O)(=O)c1cc(C)c(Cl)cc1[S-])[n+]1ccc(N(C)C)cc1",
    "Assayed system": "DU-145",
    "Result": "> 100 µM (inactive)"
  },
  {
    "Compound": "CC1(C)OC2COC3([C@@H]4OC(C)(C)O[C@@H]4CO)OC(C)(C)OC3C2O1 (some centres not stated)",
    "Assayed system": "DU-145",
    "Result": "> 100 µM (inactive)"
  },
  {
    "Compound": "CCn1c(-c2cc3ccccc3cc2OC(C)=O)n[nH]c1=S",
    "Assayed system": "DU-145",
    "Result": "35.5 µM (inactive)"
  },
  {
    "Compound": "CCOC(=O)[C@@H]1ON2OC(OC3CCCC3(c3ccccc3)c3ccccc3)C(OC(C)=O)[C@H]3OC(=O)[C@@H]1C32 (some centres not stated)",
    "Assayed system": "DU-145",
    "Result": "> 100 µM (inactive)"
  },
  {
    "Compound": "CC(=O)CCCCC(=O)Nc1ccc(CC(NC(=O)OC(C)(C)C)C(=O)NCC(=O)OCc2ccccc2)cc1 (configuration not stated)",
    "Assayed system": "DU-145",
    "Result": "32.7 µM (inactive)"
  },
  {
    "Compound": "OCC(Cn1cncn1)(c1ccc(F)cc1F)n1cncn1 (configuration not stated)",
    "Assayed system": "DU-145",
    "Result": "> 100 µM (inactive)"
  },
  {
    "Compound": "CCOC(=O)c1cc2cc([N+](=O)[O-])ccc2oc1=O",
    "Assayed system": "DU-145",
    "Result": "> 100 µM (inactive)"
  }
]
